Entries annotated with measured IC50
- experimentalTarget: UniProt:P29317
- test: EphA2 kinase inhibition, luciferase-coupled chemiluminescent assay (LCCA)
- runParameters: read-out: EphA2 IC50

- molecule: "COc1cc2c(Nc3ccc(Cl)c(Cl)c3)ncnc2cc1OCC1CCCO1 (stereo not shown)"
  IC50: "50 to 1000 nM"

Enquiry: // query IC50 value for entry COc1cc2c(Nc3ccc(Cl)c(Cl)c3)ncnc2cc1OCCC1CCCCC1
Return: 50 to 1000 nM

Enquiry: Reported IC50 for COc1cc2c(Nc3ccc(Cl)c(Cl)c3)ncnc2cc1OCc1noc(C2CCN(C(=O)OC(C)(C)C)CC2)n1 : what is it?
Return: 50 to 1000 nM

Enquiry: Given the molecule CCN1CCN(c2noc(COc3cc4ncnc(Nc5ccc(Cl)c(Cl)c5)c4cc3OC)n2)CC1 , what is its reported IC50?
Return: 50 to 1000 nM

Enquiry: Given the molecule COc1cc2c(Nc3ccc(Cl)c(Cl)c3)ncnc2cc1OCC1CCC1 , what is its reported IC50?
Return: 50 to 1000 nM

Enquiry: # query: IC50 of entry CCN(CC)c1ccc(-c2csc(COc3cc4ncnc(Nc5ccc(Cl)c(Cl)c5)c4cc3OC)n2)cc1
Return: < 50 nM

Enquiry: Which measured IC50 value corresponds to COc1cc2c(Nc3ccc(Cl)c(Cl)c3)ncnc2cc1OCc1csc(N2CCNCC2)n1 ?
Return: 1000 to 20000 nM

Enquiry: Entry COc1cc2c(Nc3ccc(Cl)c(Cl)c3)ncnc2cc1O[C@@H]1CO[C@@H]2[C@H]1OC[C@H]2F has what IC50?
Return: < 50 nM

###

- experimentalTarget: EphB4 (Homo sapiens (Human), UniProt P54760)
- Sequence (P54760 605-890): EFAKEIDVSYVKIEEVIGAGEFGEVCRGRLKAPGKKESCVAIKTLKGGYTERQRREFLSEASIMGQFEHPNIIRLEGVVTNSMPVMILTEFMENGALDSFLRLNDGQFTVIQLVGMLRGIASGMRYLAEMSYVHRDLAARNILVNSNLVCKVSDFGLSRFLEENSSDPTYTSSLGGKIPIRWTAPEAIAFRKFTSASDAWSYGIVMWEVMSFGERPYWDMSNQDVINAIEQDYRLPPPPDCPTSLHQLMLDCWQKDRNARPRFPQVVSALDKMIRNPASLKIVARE
pIC50: −log10 of the molar value.
parameter: pIC50

Study these solved cases before continuing.
- molecule: "COc1cc2c(Nc3ccc(Cl)c(Cl)c3)ncnc2cc1OCc1nc(CN2CCN(C)CC2)no1"
  measuredValue: "> 7.30"
- molecule: "COc1cc2c(Nc3ccc(Br)c(Cl)c3Cl)ncnc2cc1O[C@@H]1CO[C@@H]2[C@H]1OC[C@H]2F"
  measuredValue: "> 7.30"
- molecule: "COc1cc2c(Nc3ccc(Cl)c(Cl)c3)ncnc2cc1OCc1csc(C2CCCNC2)n1 (stereo not drawn)"
  measuredValue: "6.00 to 7.30"

Enquiry: Checklist item: pIC50 tested on EphB4 (Homo sapiens (Human), UniProt P54760), entry COc1cc2c(Nc3ccc(Cl)c(Cl)c3)ncnc2cc1OCc1ccncc1 , value?
Return: > 7.30

Enquiry: Short answer please: pIC50, EphB4 (Homo sapiens (Human), UniProt P54760), entry COc1cc2c(Nc3ccc(Cl)c(Cl)c3)ncnc2cc1OCC1CN(CCCCCC#N)CCO1 (stereo not drawn)
Return: 6.00 to 7.30

Enquiry: Given the entry COc1cc2c(Nc3ccc(Cl)c(Cl)c3)ncnc2cc1OCc1nc(-c2cccnc2)cs1 , what pIC50 was observed with EphB4 (Homo sapiens (Human), UniProt P54760)?
Return: 6.00 to 7.30

###

In this section, each of the compounds is paired with its reported pIC50.
- experimentalTarget: EphA2 (Homo sapiens (Human))
- test: EphA2 kinase inhibition, luciferase-coupled chemiluminescent assay (LCCA)
- runParameters: read-out: EphA2 IC50
pIC50: −log10 of the molar value.

Below, each entry is followed by its recorded pIC50 result.
- compound: "COc1cc2c(Nc3ccc(Cl)c(Cl)c3)ncnc2cc1OC[C@H]1O[C@H](OC)[C@H](O)[C@@H](O)[C@@H]1O (stereo in doubt)"
  pIC50: "6.00 to 7.30"
- compound: "COc1cc2c(Nc3ccc(Cl)c(Cl)c3)ncnc2cc1OCc1nc(N2CCNCC2)no1"
  pIC50: "> 7.30"
- compound: "COc1cc2c(Nc3ccc(C(F)(F)F)cc3Br)ncnc2cc1O[C@@H]1CO[C@@H]2[C@H]1OC[C@H]2F"
  pIC50: "> 7.30"
- compound: "COc1cc2c(Nc3ccc(Cl)c(Cl)c3)ncnc2cc1OCc1csc(N2CCOCC2)n1"
  pIC50: "> 7.30"

Enquiry: Short answer please: pIC50, EphA2 (Homo sapiens (Human)), entry COc1cc2c(Nc3ccc(Cl)c(Cl)c3)ncnc2cc1OCC(=O)N1CCOCC1
Return: 6.00 to 7.30

Enquiry: # get_value(readout= pIC50, system= EphA2 (Homo sapiens (Human))) for COc1cc2c(Nc3ccc(Cl)c(Cl)c3)ncnc2cc1OCCC1OCCCO1
Return: 6.00 to 7.30

###

- experimentalTarget: EphA2 (Homo sapiens (Human), UniProt P29317)
- Sequence (P29317 598-890): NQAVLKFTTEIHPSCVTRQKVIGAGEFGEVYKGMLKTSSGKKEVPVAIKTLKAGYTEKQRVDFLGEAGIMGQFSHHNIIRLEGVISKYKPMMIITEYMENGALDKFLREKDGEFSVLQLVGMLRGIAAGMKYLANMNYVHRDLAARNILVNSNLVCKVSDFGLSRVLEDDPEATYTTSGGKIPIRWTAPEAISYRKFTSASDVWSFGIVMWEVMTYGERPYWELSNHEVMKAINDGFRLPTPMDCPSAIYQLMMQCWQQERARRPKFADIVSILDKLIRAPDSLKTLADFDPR
- test: EphA2 kinase inhibition, luciferase-coupled chemiluminescent assay (LCCA)
- runParameters: read-out: EphA2 IC50
parameter: IC50

// worked examples, IC50 included
- compound: "COc1cc2c(Nc3ccc(Cl)c(Cl)c3)ncnc2cc1OCc1nc(CN2CCOCC2)cs1"
  experimentalTarget: "EphA2 (Homo sapiens (Human), UniProt P29317)"
  parameter: "IC50"
  measuredValue: "50 to 1000 nM"
- compound: "COc1cc2c(Nc3ccc(Cl)c(Cl)c3)ncnc2cc1OCc1csc(C2CCNCC2)n1"
  experimentalTarget: "EphA2 (Homo sapiens (Human), UniProt P29317)"
  parameter: "IC50"
  measuredValue: "50 to 1000 nM"
- compound: "COc1cc2c(Nc3cc(F)cc(F)c3)ncnc2cc1O[C@@H]1CO[C@@H]2[C@H]1OC[C@H]2F"
  experimentalTarget: "EphA2 (Homo sapiens (Human), UniProt P29317)"
  parameter: "IC50"
  measuredValue: "< 50 nM"

Enquiry: Find IC50 (EphA2 (Homo sapiens (Human), UniProt P29317)) for the entry CCN1CCN(c2nc(COc3cc4ncnc(Nc5ccc(Cl)c(Cl)c5)c4cc3OC)cs2)CC1
Return: 1000 to 20000 nM

Enquiry: Reported IC50 for EphA2 (Homo sapiens (Human), UniProt P29317), given COc1cc2c(Nc3ccc(Cl)c(Cl)c3)ncnc2cc1OCc1csc(-c2ccc(Cl)cc2)n1 ?
Return: 50 to 1000 nM

Enquiry: What is its IC50 for EphA2 (Homo sapiens (Human), UniProt P29317)? Entry: COc1cc2c(Nc3cccc(Br)c3C)ncnc2cc1O[C@H]1CO[C@H]2[C@@H]1OC[C@@H]2OC
Return: 50 to 1000 nM

Enquiry: Item COc1cc2c(Nc3cc(Br)cc(C(F)(F)F)c3)ncnc2cc1O[C@@H]1CO[C@@H]2[C@H]1OC[C@H]2F with EphA2 (Homo sapiens (Human), UniProt P29317) - IC50?
Return: < 50 nM

Enquiry: Param readout= IC50; system= EphA2 (Homo sapiens (Human), UniProt P29317); entry= COc1cc2c(Nc3ccc(Cl)c(Cl)c3)ncnc2cc1OCc1csc(N(C)C)n1 ; returns value.
Return: 50 to 1000 nM

Enquiry: Give recorded IC50 with EphA2 (Homo sapiens (Human), UniProt P29317) for the following compound: COc1cc2c(Nc3ccc(Cl)c(Cl)c3)ncnc2cc1OCc1csc(COC(=O)c2ccccc2)n1
Return: < 50 nM

Enquiry: Notebook entry, EphA2 (Homo sapiens (Human), UniProt P29317) assay: IC50 of COc1cc2c(Nc3ccc(Cl)c(Cl)c3)ncnc2cc1OCc1csc([C@@H]2CSCN2)n1 = ?
Return: 50 to 1000 nM

Enquiry: Item COc1cc2c(Nc3ccc(Cl)c(Cl)c3)ncnc2cc1OCC1CN(C(C)C)CCCO1 (stereo not shown) with EphA2 (Homo sapiens (Human), UniProt P29317) - IC50?
Return: 1000 to 20000 nM

Enquiry: # query: IC50 | item COc1cc2c(Nc3ccc(Cl)c(Cl)c3)ncnc2cc1OCCN1C(=O)c2ccccc2C1=O | system: EphA2 (Homo sapiens (Human), UniProt P29317)
Return: 50 to 1000 nM

Enquiry: Query for EphA2 (Homo sapiens (Human), UniProt P29317): what IC50 does the record show for COc1cc2c(Nc3ccc(Cl)c(Cl)c3)ncnc2cc1OCc1csc(C2CCCNC2)n1 (stereo not shown) ?
Return: 1000 to 20000 nM

Enquiry: API: value(readout=IC50, system=EphA2 (Homo sapiens (Human), UniProt P29317)) for record CCN1CCCOC(COc2cc3ncnc(Nc4ccc(Cl)c(Cl)c4)c3cc2OC)C1 (stereo not shown)
Return: < 50 nM

Enquiry: Kindly state the measured IC50 obtained for COc1cc2c(Nc3ccc(Cl)c(Cl)c3)ncnc2cc1OCc1nc(N(C)C)no1 with EphA2 (Homo sapiens (Human), UniProt P29317).
Return: 50 to 1000 nM

Enquiry: Param readout = IC50; param system = EphA2 (Homo sapiens (Human), UniProt P29317); param query = COc1cc2c(Nc3ccc(Cl)c(Cl)c3)ncnc2cc1OCc1ccc2nc(C(F)(F)F)cc(Cl)c2c1 ; response: value
Return: < 50 nM
